Reference source for all entries: patent EP0029617A1

Tested on: Kornkäfer (sitophilus granarius L)
Assay: whole plant or invertebrate
Format: in vivo
Settings: sitophilus granarius, in vivo, 3 h
Kindly state Wirksamkeit in % Substanz +Talcord for each of the entries shown.

What reported Wirksamkeit in % Substanz +Talcord corresponds to CCCCOCCOCCN1CCOCC1 [N-(2'-Butoxi-diethylether-(2))-morpholin] on Kornkäfer (sitophilus granarius L)? 78,8%

Subsequent entry: CCCCOC(CN1CCOCC1)OCCCC [2-N-Morpholino-ethyl-di-butyl-acetal] 100%

Next: CCCCOCCOCCN1CCCCCC1 32,0%

Could you do the same for CCCCOCCOCCN1CCCC1 , please? 8,9%

* * *

What Wirksamkeit in % Substanz +Talcord was measured for each of the following?
Tested on: Kornkäfer (sitophilus granarius L)
Experiment: whole plant or invertebrate
Format: in vivo
Details: amine 1 mg/ml mixed 1 : 1 with Talcord 0,01 mg/ml; 3 h

Given CCC(CC)N1CCCC1 , state its recorded Wirksamkeit in % Substanz +Talcord. 46,8%

// repeat for c1ccc(OCCN2CCCCC2)cc1 and report 68,0%

// repeat for OC(CCl)CN1CCCCC1 (stereo not drawn) [1-N-Piperidino-2-hydroxi-3-chlor-propan] and report 54,8%

Another compound: c1cc2c(cc1CN1CCOCC1)OCO2 37,2%

# repeat for c1ccc(CCN2CCOCC2)cc1 73,2%

What do you have for CCCCCCCCCCCCN1CCCC1 ? 96,0%

* * *

Test system: Kornkäfer (sitophilus granarius L)
Experiment: whole plant or invertebrate
Assay type: in vivo
Settings: amine 1 mg/ml + Talcord 0,01 mg/ml
measurement.name: Synergistischer Faktor bei Talcord

Request - read-out Synergistischer Faktor bei Talcord | tested on Kornkäfer (sitophilus granarius L) | compound C(CCCCCN1CCCC1)CCCCN1CCCC1 3,00

Proceed to C=CC(C)(CCC=C(C)C)N1CCCCCC1 (stereo not drawn) 7,30

Try CCC1CCCCN1Cc1ccccc1 (stereo not drawn) next. 1,53

Now consider OCC(CO)(CO)CN1CCCCC1 and answer again. 3,30

Now try CC(C)=CCC/C(C)=C\CN1CCCCC1 . 2,76

Field entry: c1ccc(CN2CCOCC2)cc1 2,19

Could you do the same for CCCCCN1CCCCC1 , please? 2,06

Now the same for C(CCCCN1CCCC1)CCCN1CCCC1 6,60

Same question, OC(CCl)CN1CCCCC1 (stereo not drawn) [1-N-Piperidino-2-hydroxi-3-chlor-propan] this time 5,65

Same thing, different compound: c1ccc(OCCN2CCOCC2)cc1 6,47

Also need c1ccc(OCCN2CCCC2)cc1 , thanks. 2,88

// query: CCOC(=O)C(c1ccccc1)C(C(=O)OCC)N1CCCC1 (stereo not drawn) 2,76

Quick one: CCC(CC)N1CCCC1 4,82

How about CCCCCCCCCCCCN1CC1 ? 3,71

What would you report for c1ccc(CN2CCCC2)cc1 ? 1,65

// next record C1CCN(CCOCCOCCN2CCCC2)C1 7,13

Likewise for c1ccc2cc(CN3CCCCC3)ccc2c1 ? 9,07

Next entry: COc1cc(C=O)cc(CN2CCCCC2)c1O 4,12

// query: C(CCCN1CCCC1)CCN1CCCC1 4,24

What do we get for CCCCCCCCCCCCCCCCN1CCCCC1CC (stereo not drawn) ? 1,94

And what about the compound C=CC(C)(CCC=C(C)C)N1CC1 (stereo not drawn) ? 6,72

* * *

Tested on: Kornkäfer (sitophilus granarius L)
Experiment: whole plant or invertebrate
Type: in vivo
Settings: amine 1 mg/ml + Ripcord 0,01 mg/ml
Experimental: Test von tertiären, heterocyclischen Aminen allein und im Gemisch mit Pyrethroiden an Kornkäfern (sitophilus granarius L) In Petrischalen mit 15 cm Durchmesser mit talcumbepuderten Seitenwänden, um das Entfliehen der Kornkäfer zu verhindern, wurden jeweils 2 ml der Acetonlösungen einpipettiert und durch vorsichtiges Schwenken der Schalen gleichmäßig auf dem Boden verteilt. Nach dem Abdampfen des Acetons und dem Antrocknen der Beläge wurden in jede Schale 25 Kornkäfer eingezählt. […]
measurement.name: Synergistischer Faktor bei Ripcord

Quick check: Synergistischer Faktor bei Ripcord of c1ccc(CCN2CCOCC2)cc1 [N-1-Phenyl-ethyl-(2)-morpho-lin] ? 2,76

Do the same for CCCCCCCCCCCCN1CCOCC1 [N-1-Dodecyl-morpholin] please 2,76

Check CCOC(=O)C(CC)N1CCOCC1 (centres unmarked) [2-N-Morpholino-buttersäure-ethylester] too. 1,56

Moving on to CCCCCCCCCCCCN1CCCCCC1 [N-1-Dodecyl-hexamethylenimin] 1,59

Try the compound OCC(CO)(CO)CN1CCCCC1 [N-Piperidino-pentaerythrit] 1,99

* * *

System: Kornkäfer (sitophilus granarius L)
Experiment: whole plant or invertebrate
Format: in vivo
Conditions: Pyrethroid : Amin 1 : 10, amine 0,1 mg/ml; 180 min
Please respond with reported % Wirkung Substanz +Ripcord for every item in the list.

Find the recorded % Wirkung Substanz +Ripcord belonging to CCCCCCCCCCCN1CCCCCC1 and report it. 92,0%

Also need CCCCCCCCCCCN1CCCCC1 , thanks. 97,2%

c1cc2c(cc1CN1CCCCC1)OCO2 , same question. 74,8%

Now the same for CCOC(=O)C(c1ccccc1)N1CCCCC1 (centres unmarked) 98,8%

c1ccc(CN2CCCCC2)cc1 , same question. 100,0%

Likewise for CCCCCCCCCCN1CCCCC1 ? 97,2%

Another compound to look at: CCCCCCCCCCCN1CCCC1 97,2%

Same again, this time with Clc1ccc(CN2CCCC2)cc1 97,2%

* * *

Test system: Kornkäfer (sitophilus granarius L)
Assay: whole plant or invertebrate
Assay type: in vivo
Conditions: amine 1 mg/ml + Ripcord 0,01 mg/ml
measurement.name: Synergistischer Faktor bei Ripcord

Kornkäfer (sitophilus granarius L) / Synergistischer Faktor bei Ripcord / C1CCC(N2CCCC2)CC1 [N-Cyclohexyl-pyrrolidin] : value? 2,16

Also need N#CCN1CCCCCC1 [N-Hexamethylenimino-aceto-nitril] , thanks. 1,69

Please give the result for CCOC(=O)C(c1ccccc1)N1CCCC1 (stereo not drawn) too. 2,92

And for CCCCCN1CCCCC1 [N-1-Pentyl-piperidin] ? 1,94

Here is the next compound: C=CC(C)(CCC=C(C)C)N1CC1 (stereo not drawn) [N-1-Linalyl-aziridin] 2,99

Here is the next compound: C#CCN1CCCCC1CC (stereo not drawn) [N-1-Propanrgyl-2-ethyl-piperidin] 2,92

* * *

Assignment: determine reported Synergistischer Faktor bei Ripcord for the given compounds.
System: Kornkäfer (sitophilus granarius L)
Experiment: whole plant or invertebrate
Format: in vivo
Settings: amine 1 mg/ml + Ripcord 0,01 mg/ml

For CCCCCCCCN1CCCCC1CC (centres unmarked) , what is its reported Synergistischer Faktor bei Ripcord? 1,52

Entry to check: C(=Cc1ccccc1)CN1CCCC1 3,08

Query Oc1cc(CN2CCCCC2)c(O)cc1CN1CCCCC1 next 1,78

And what about the compound C1CCN(CCOCCOCCN2CCCC2)C1 ? 3,17

What would you report for c1cc2c(cc1CN1CCCC1)OCO2 ? 1,87

Another compound to check: c1ccc(OCCN2CCCC2)cc1 1,69

Repeat with CCOC(=O)C(c1ccccc1)C(C(=O)OCC)N1CCCC1 (centres unmarked) 2,79

Query CN(C)C(=O)N1CCCCC1 next 1,69

Do the same for CN(C)C(=O)N1CCCCCC1 please 2,45

How about this compound: c1ccc(CN2CCOCC2)cc1 1,43

What would you report for CCCCCCCCN1CCCCC1 ? 1,74

Next up: O=[N+]([O-])c1ccc(CN2CCCCC2)cc1 1,47

Note, next up: O=C(OCc1ccccc1)C(c1ccccc1)N1CCCCC1 (centres unmarked) 3,05

And for C#CCN1CCCC1 ? 1,61

Then CCCCCCCCN1CCCC1 ? 1,78

Also C=CC(C)(CCC=C(C)C)N1CCOCC1 (centres unmarked) ? 2,92

What do you have for CCCCCCCCCCCCCCN1CCOCC1 ? 2,03

Do the same for OC(CCl)CN1CCCCC1 (centres unmarked) [1-N-Piperidino-2-hydroxi-3-chlor-propan] please 1,74

Another compound to look at: C=CCN1CCCCC1 2,32

Check CC(C)=CCCC(C)=CCN1CCCCC1 too. 2,79

* * *

Test system: Kornkäfer (sitophilus granarius L)
Test: whole plant or invertebrate
Assay type: in vivo
Conditions: Sitophilus granarius; amine 1 mg/ml in Aceton mixed 1 : 1 with Aceton, 2 ml per dish; 25 weevils, dead counted after 3 h; read-out: Wirksamkeit in % Substanz allein
measurement.name: mortality at 1000 µg/mL
Express your answer as a number followed by its unit.

Please tell me: mortality at 1000 µg/mL of c1ccc(CN2CCCCC2)cc1 , system Kornkäfer (sitophilus granarius L)? 0%

Would you mind doing C(=Cc1ccccc1)CN1CCCC1 as well? 0%

Continue with c1cc2c(cc1CN1CCOCC1)OCO2 0%

And the next one, CCCCCCCCCN1CCCCCC1 ? 40%

Param item: CCCCCCCCCCCCN1CCOCC1 0%

Follow-up entry: CCCCCCCCCCCCCN1CCCCC1 0%

Same question, CCCCCCCCCCCCN1CCCCC1C (stereo not drawn) this time 0%

// query: CCC1CCCCN1Cc1ccccc1 (stereo not drawn) 0%

Please answer likewise for CCCCCCCCCCN1CCOCC1 0%

// next record CCCCCCCCCCCCN1CCCCCC1 14%

Further, for CCCCCCCCCCN1CCCC1 ? 81.6%

Also CCCCCCCCCCCN1CCCCCC1 , if possible. 0%

Continue with c1cc2c(cc1CN1CCCC1)OCO2 41.2%

Entry to check: c1cc2c(cc1CN1CCCCC1)OCO2 0%

Lookup CCCCCN1CCCCC1 0%

Also, c1ccc(CN2CCOCC2)cc1 please. 0%

Please do the same for CCCCCN1CCOCC1 as well. 0%

Can you handle O=[N+]([O-])c1ccc(CN2CCCCC2)cc1 next? 2.8%

Input c1ccc(CN2CCCC2)cc1 0%

Same thing, different compound: c1cc2c(cc1CN1CCCCCC1)OCO2 0%

Again, but for CC(C)=CCCC(C)CCN1CCCCC1 (stereo not drawn) 1.2%

Another compound to look at: CCCCCCCCN1CCCCC1CC (stereo not drawn) 26.8%

Try this compound next: CCCCCCCCCCCCCCCCN1CCCCC1CC (stereo not drawn) 0%

Another compound to look at: CCCCCN1CCCC1 0%

Same question for CCCCCCCCN1CCCCC1 please. 0%

Could you do the same for CCCCCCCCCCN1CCCCCC1 , please? 69.2%

# iterate: CC(C)=CCCC(C)=CCCC(C)=CCN1CCCCC1 0%
